Below, each entry is listed alongside its reported ELISA A450.
- ASSAY SYSTEM: mouse CD3epsilon protein (mouse) (UniProt P22646)
- Sequence (P22646 22-108 limits assumed): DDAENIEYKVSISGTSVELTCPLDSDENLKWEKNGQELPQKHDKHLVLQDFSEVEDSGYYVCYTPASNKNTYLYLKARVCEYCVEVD
- TEST PROTOCOL: ELISA, antigen coated on plate
Provide the reading as a plain figure in A450.

Worked examples, 2 binders total:
WBP3311_2.400.5 (antibody, V domains shown) VH: QVQLQQSGPELVNPGASVKISCKASGYSFTNYYLHWVKQRPGQGLEWIGWIFPESDNTKYNEKLKGKATLTADTSSDTAYMHLSSLTFEDSAVYFCARDSVGNYFFDFWGQGTTLTVSS VL: DIVMSQSPSSLAVSAGEKVTMRCKSSQSLVNNRTRKNYLAWYQQKPGQPPKLLIYWASTRESGVPDRFTGSGSGTDFTLTISSVQAEDLAVYYCAQSFILRTFGGGTKLEIK
0.709
WBP3311_2.482.5 (antibody, V domains shown) VH: QVQLQQSGPELVKPGSSVKISCKPSGYTFTTYYIHWVKQRPGQGLEWIGWIFPGSDNIKYNENFKDKATLTADTSSSTAYMQLSSLTSEDSAVYFCARDSVSRYYFDYWGQGTILTVSS VL: DIVMSQSPSSLAVSAGEKVTMSCKSSQSLVNDRTRKNYLAWYQQKPGLSPKLLIYWASTRESGVPDRFTGSGSGTDFTLTISSVQAEDLAVYYCAQSFILRTFGGGTKLEIK
0.61

Alright, here's another binder for you.
q: Recall and state the measured ELISA A450 for WBP3311_2.383.47 (antibody, V domains shown) VH: QVQLQQSGPELVKPGASVRISCKTSGFTFTNYYIHWVIQRPGQGLEWIGWISPENGNTKYNENFQDKATLTADISSSTAYMHLSSLTSEDSAVYFCARDGYSLYYFDYWGQGTTLTVSS VL: DIVMSQSPSSLTVSAGEKVTMSCKSSQSLLNSRTRKNYLAWYQQKPGQSPKLLIYWASIRVSGVPDRFTGSGSGTTFTLTISGVQAEDLAVYYCTQSHTLRTFGGGTKLEIK .
a: 0.666
